Origin of measurements: paper PMC6001238

# Tested on: E. faecalis VRE 53
# experimental details: MIC, broth microdilution, vancomycin-resistant E. faecalis VRE 53 (VanA)
# Assay type: cell-based, Enterococcus faecalis
# condition parameters: Enterococcus faecalis VRE 53 (vancomycin-resistant); read-out: MIC
Reported MIC values follow for various molecules

# molecule, subject of test, MIC
rows = [
    ("CNC(CC(C)C)C(=O)NC1C(=O)NC(CC(N)=O)C(=O)NC2C(=O)NC3C(=O)NC(C(=O)NC(C(=O)NCC(=O)Nc4ccc(O)cc4)c4cc(O)cc(O)c4-c4cc3ccc4O)C(O)c3ccc(c(Cl)c3)Oc3cc2cc(c3OC2OC(CO)C(O)C(O)C2OC2CC(C)(N)C(O)C(C)O2)Oc2ccc(cc2Cl)C1O (stereo not drawn)", "E. faecalis VRE 53", "25 µM"),
    ("CN[C@H](CC(C)C)C(=O)N[C@H]1C(=O)N[C@@H](CC(N)=O)C(=O)N[C@H]2C(=O)N[C@H]3C(=O)N[C@H](C(=O)N[C@H](C(=O)NCC(=O)Nc4cccc(F)c4)c4cc(O)cc(O)c4-c4cc3ccc4O)[C@H](O)c3ccc(c(Cl)c3)Oc3cc2cc(c3O[C@@H]2O[C@H](CO)[C@@H](O)[C@H](O)[C@H]2O[C@H]2C[C@](C)(N)[C@H](O)[C@H](C)O2)Oc2ccc(cc2Cl)[C@H]1O", "E. faecalis VRE 53", "12.5 µM"),
]

Data request: If you can, please state the reported MIC value of CN[C@H](CC(C)C)C(=O)N[C@H]1C(=O)N[C@@H](CC(N)=O)C(=O)N[C@H]2C(=O)N[C@H]3C(=O)N[C@H](C(=O)N[C@H](C(=O)NCCNC(=O)/C=C/c4ccc(F)cc4)c4cc(O)cc(O)c4-c4cc3ccc4O)[C@H](O)c3ccc(c(Cl)c3)Oc3cc2cc(c3O[C@@H]2O[C@H](CO)[C@@H](O)[C@H](O)[C@H]2O[C@H]2C[C@](C)(N)[C@H](O)[C@H](C)O2)Oc2ccc(cc2Cl)[C@H]1O .
Data returned: 25 µM

* * *

# Tested on: MRSA KS1
# experimental details: MIC, broth microdilution, MRSA KS1
# Format: cell-based, Staphylococcus aureus
# condition parameters: MRSA KS1; ratio of MIC of vancomycin and MIC of analogue
parameter measured: MIC-fold improvement vs. vancomycin

Data request: Requested read-out MIC-fold improvement vs. vancomycin, target or system MRSA KS1, entry CN[C@H](CC(C)C)C(=O)N[C@H]1C(=O)N[C@@H](CC(N)=O)C(=O)N[C@H]2C(=O)N[C@H]3C(=O)N[C@H](C(=O)N[C@H](C(=O)NCC(=O)Nc4ccc(Nc5ccccc5)cc4)c4cc(O)cc(O)c4-c4cc3ccc4O)[C@H](O)c3ccc(c(Cl)c3)Oc3cc2cc(c3O[C@@H]2O[C@H](CO)[C@@H](O)[C@H](O)[C@H]2O[C@H]2C[C@](C)(N)[C@H](O)[C@H](C)O2)Oc2ccc(cc2Cl)[C@H]1O
Data returned: 2

Data request: Lab note: need MIC-fold improvement vs. vancomycin with MRSA KS1 for entry CCCCC#Cc1ccc(NC(=O)CNC(=O)[C@H]2NC(=O)[C@H]3NC(=O)[C@H](NC(=O)[C@@H]4NC(=O)[C@H](CC(N)=O)NC(=O)[C@H](NC(=O)[C@@H](CC(C)C)NC)[C@H](O)c5ccc(c(Cl)c5)Oc5cc4cc(c5O[C@@H]4O[C@H](CO)[C@@H](O)[C@H](O)[C@H]4O[C@H]4C[C@](C)(N)[C@H](O)[C@H](C)O4)Oc4ccc(cc4Cl)[C@H]3O)c3ccc(O)c(c3)-c3c(O)cc(O)cc32)cc1 , please look it up.
Data returned: 4

Data request: Missing value: MIC-fold improvement vs. vancomycin, MRSA KS1, entry CNC(CC(C)C)C(=O)NC1C(=O)NC(CC(N)=O)C(=O)NC2C(=O)NC3C(=O)NC(C(=O)NC(C(=O)NCCCNC(=O)c4cc5ccccc5[nH]4)c4cc(O)cc(O)c4-c4cc3ccc4O)C(O)c3ccc(c(Cl)c3)Oc3cc2cc(c3OC2OC(CO)C(O)C(O)C2OC2CC(C)(N)C(O)C(C)O2)Oc2ccc(cc2Cl)C1O (stereo not drawn) . Fill in?
Data returned: 2

* * *

# Tested on: S. aureus VRSA
# experimental details: MIC, broth microdilution, vancomycin-resistant S. aureus (VRSA)
# Format: cell-based, Staphylococcus aureus
# condition parameters: VRSA; ratio of MIC of vancomycin and MIC of analogue
# Procedure: The minimum inhibitory concentration (MIC) was determined using the broth microdilution method according to the antimicrobial susceptibility testing standards of the clinical and laboratory standards institute ([Clinical and Laboratory Standards Institute [CLSI], 2012]). Ultrapure water and non-inoculated broth were used as controls. In one case, a final concentration of 10 μM vancomycin was included with the vancomycin analog or control antibiotic.
The reader will find reported MIC-fold improvement vs. vancomycin values listed item by item below.
Give the value as a plain number.

Data request: Name the recorded MIC-fold improvement vs. vancomycin for CCc1ccc(NC(=O)CNC(=O)[C@H]2NC(=O)[C@H]3NC(=O)[C@H](NC(=O)[C@@H]4NC(=O)[C@H](CC(N)=O)NC(=O)[C@H](NC(=O)[C@@H](CC(C)C)NC)[C@H](O)c5ccc(c(Cl)c5)Oc5cc4cc(c5O[C@@H]4O[C@H](CO)[C@@H](O)[C@H](O)[C@H]4O[C@H]4C[C@](C)(N)[C@H](O)[C@H](C)O4)Oc4ccc(cc4Cl)[C@H]3O)c3ccc(O)c(c3)-c3c(O)cc(O)cc32)cc1 [Vanc-13] .
Data returned: 32

Data request: Requested field: MIC-fold improvement vs. vancomycin. Item: CCCCC[N+](C)(C)CCCNC(=O)c1ccc(NC(=O)CNC(=O)C2NC(=O)C3NC(=O)C(NC(=O)C4NC(=O)C(CC(N)=O)NC(=O)C(NC(=O)C(CC(C)C)NC)C(O)c5ccc(c(Cl)c5)Oc5cc4cc(c5OC4OC(CO)C(O)C(O)C4OC4CC(C)(N)C(O)C(C)O4)Oc4ccc(cc4Cl)C3O)c3ccc(O)c(c3)-c3c(O)cc(O)cc32)cc1 (stereo not drawn) [Vanc-80]
Data returned: 64

Data request: Dear colleague, I am looking for the recorded MIC-fold improvement vs. vancomycin of the following molecule: C#Cc1ccc(/C=C/C(=O)NCCNC(=O)[C@H]2NC(=O)[C@H]3NC(=O)[C@H](NC(=O)[C@@H]4NC(=O)[C@H](CC(N)=O)NC(=O)[C@H](NC(=O)[C@@H](CC(C)C)NC)[C@H](O)c5ccc(c(Cl)c5)Oc5cc4cc(c5O[C@@H]4O[C@H](CO)[C@@H](O)[C@H](O)[C@H]4O[C@H]4C[C@](C)(N)[C@H](O)[C@H](C)O4)Oc4ccc(cc4Cl)[C@H]3O)c3ccc(O)c(c3)-c3c(O)cc(O)cc32)cc1 [Vanc-Q]
Data returned: 8

* * *

# Test system: S. aureus VISA/HIP5827
# experimental details: MIC, broth microdilution, vancomycin-intermediate S. aureus VISA HIP5827
# Format: cell-based, Staphylococcus aureus
# condition parameters: Staphylococcus aureus VISA/HIP5827; read-out: MIC
Entries and their MIC
Write the number in µM without appending the unit.

# molecule, MIC, µM
measured = [
    ("CNC(CC(C)C)C(=O)NC1C(=O)NC(CC(N)=O)C(=O)NC2C(=O)NC3C(=O)NC(C(=O)NC(C(=O)NCC(=O)Nc4ccc(O)cc4)c4cc(O)cc(O)c4-c4cc3ccc4O)C(O)c3ccc(c(Cl)c3)Oc3cc2cc(c3OC2OC(CO)C(O)C(O)C2OC2CC(C)(N)C(O)C(C)O2)Oc2ccc(cc2Cl)C1O (centres unmarked)", 0.78),
]

Okay, next one:
Data request: Please give the measured MIC for this molecule: CN[C@H](CC(C)C)C(=O)N[C@H]1C(=O)N[C@@H](CC(N)=O)C(=O)N[C@H]2C(=O)N[C@H]3C(=O)N[C@H](C(=O)N[C@H](C(=O)NCCNC(=O)/C=C/c4ccc(C)cc4)c4cc(O)cc(O)c4-c4cc3ccc4O)[C@H](O)c3ccc(c(Cl)c3)Oc3cc2cc(c3O[C@@H]2O[C@H](CO)[C@@H](O)[C@H](O)[C@H]2O[C@H]2C[C@](C)(N)[C@H](O)[C@H](C)O2)Oc2ccc(cc2Cl)[C@H]1O
Data returned: 0.78

* * *

# MIC-fold improvement vs. vancomycin listing for each entry below
# Test system: MRSA KS1
# experimental details: MIC, broth microdilution, MRSA KS1
# Assay type: cell-based, Staphylococcus aureus
# condition parameters: MRSA KS1; ratio of MIC of vancomycin and MIC of analogue

Observe how each entry below is paired with its result.
# compound, MIC-fold improvement vs. vancomycin
records = [
    ("CCCCc1ccc(NC(=O)CNC(=O)[C@H]2NC(=O)[C@H]3NC(=O)[C@H](NC(=O)[C@@H]4NC(=O)[C@H](CC(N)=O)NC(=O)[C@H](NC(=O)[C@@H](CC(C)C)NC)[C@H](O)c5ccc(c(Cl)c5)Oc5cc4cc(c5O[C@@H]4O[C@H](CO)[C@@H](O)[C@H](O)[C@H]4O[C@H]4C[C@](C)(N)[C@H](O)[C@H](C)O4)Oc4ccc(cc4Cl)[C@H]3O)c3ccc(O)c(c3)-c3c(O)cc(O)cc32)cc1", 4),
    ("CNC(CC(C)C)C(=O)NC1C(=O)NC(CC(N)=O)C(=O)NC2C(=O)NC3C(=O)NC(C(=O)NC(C(=O)NCC(=O)Nc4cccc(OC)c4)c4cc(O)cc(O)c4-c4cc3ccc4O)C(O)c3ccc(c(Cl)c3)Oc3cc2cc(c3OC2OC(CO)C(O)C(O)C2OC2CC(C)(N)C(O)C(C)O2)Oc2ccc(cc2Cl)C1O (stereo not drawn)", 2),
]

# context switch: different compound, same MIC-fold improvement vs. vancomycin
Data request: # get_value(readout='MIC-fold improvement vs. vancomycin', item= CN[C@H](CC(C)C)C(=O)N[C@H]1C(=O)N[C@@H](CC(N)=O)C(=O)N[C@H]2C(=O)N[C@H]3C(=O)N[C@H](C(=O)N[C@H](C(=O)NCCNC(=O)/C=C/c4ccc(Cl)cc4Cl)c4cc(O)cc(O)c4-c4cc3ccc4O)[C@H](O)c3ccc(c(Cl)c3)Oc3cc2cc(c3O[C@@H]2O[C@H](CO)[C@@H](O)[C@H](O)[C@H]2O[C@H]2C[C@](C)(N)[C@H](O)[C@H](C)O2)Oc2ccc(cc2Cl)[C@H]1O )
Data returned: 4
